# assayNotes: Half-life in rat plasma in vitro
# Format: in vitro ADME
# assayContext: read-out: T ½ rat plasma in vitro (converted)
property: half-life (h)

{"compound": "CC(C)OC(=O)N[C@@H](Cc1c[nH]c2ccccc12)C(=O)NCCC(=O)NC1CCC(=O)NC1=O (some centres unmarked)", "unitSymbol": "h", "obsValue": 9.1}

(P) CC(C)(NC(=O)[C@@H](N)Cc1c[nH]c2ccccc12)C(=O)NC1CCC(=O)NC1=O (stereo partly drawn) [Example 188, Trp-Aib-aminoglutarimide]
(Q) CC(C)(C)OC(=O)N[C@@H](Cc1c[nH]c2ccccc12)C(=O)NCC(=O)NC1CCC(=O)NC1=O (stereo partly drawn) [Example 163, BOC-Trp-Gly-α-aminoglutaramide]
Qu. Of P and Q , whose reported half-life is the larger number? Refer to your chosen item by its label in the answer.
Ans. Q
(Q: 6.1 h, P: 3.1 h)
